Target: HDAC2 Human recombinant C-terminal FLAG-tag (Homo sapiens)
Construct: FLAG (C); purchased BPS Bioscience 50052
Assay: Measurement of HDAC2 enzyme inhibitory activity (HTRF)
Format: biochemical
Conditions: recombinant HDAC2, H3K9ac peptide, 3 hours room temperature; read-out: HDAC2 IC50
pIC50: −log10 of the molar value.
Readout name: pIC50

Compound | Tested on | pIC50
COc1ccc(C(=O)Nc2cc(-c3cnn(C)c3)ccc2N)nn1 [Compound I-254] | HDAC2 Human recombinant C-terminal FLAG-tag (Homo sapiens) | 6.47

1: Nc1ccc(-c2cncs2)cc1NC(=O)c1ccc2c(n1)CCC2 [Compound I-083]
2: CN(C)c1ccc(C(=O)Nc2cc(-c3ccc(F)nc3)ccc2N)nc1 [Compound I-176]
3: Cn1cc(-c2ccc(N)c(NC(=O)c3cnc(OC(F)F)cn3)c2)cn1 [Compound I-146]
*Q* // smallest pIC50 at index 0, largest at the end Use the labels to give the ranking in the order requested.
*A* 3, 1, 2
(3: 6.42, 1: 6.80, 2: 7.10)

A: Nc1ccc(-c2ccc(F)nc2)cc1NC(=O)c1ccc(CO)cn1 [Compound I-192]
B: COCCOc1cnc(C(=O)Nc2cc(-c3ccc(F)nc3)ccc2N)cn1 [Compound I-229]
C: CN(C)c1ccc(C(=O)Nc2nc(-n3cccc3)ccc2N)nc1 [Compound I-226]
D: Cn1cc(-c2cnc(C(=O)Nc3cc(-c4cnco4)ccc3N)cn2)cn1 [Compound I-009]
*Q* Sort the 4 compounds by pIC50; largest first, smallest last. Put the labels in the requested order and list them out.
*A* D, B, A, C

1: COCCOc1cnc(C(=O)Nc2nc(-n3cccc3)ccc2N)cn1 [Compound I-232]
2: CC(=O)Nc1ccc(C(=O)Nc2cc(-c3cnn(C)c3)ccc2N)nc1 [Compound I-265]
3: N#Cc1ccnc(C(=O)Nc2cc(-c3cncs3)ccc2N)c1 [Compound I-109]
*Q* Put the items in sequence by pIC50, from largest down. Put the labels in the requested order and list them out.
*A* 2, 3, 1

###

Molecular target: HDAC2 Human recombinant C-terminal FLAG-tag (Homo sapiens, UniProt Q92769)
Construct: FLAG (C); purchased BPS Bioscience 50052
Sequence (Q92769 whole entry): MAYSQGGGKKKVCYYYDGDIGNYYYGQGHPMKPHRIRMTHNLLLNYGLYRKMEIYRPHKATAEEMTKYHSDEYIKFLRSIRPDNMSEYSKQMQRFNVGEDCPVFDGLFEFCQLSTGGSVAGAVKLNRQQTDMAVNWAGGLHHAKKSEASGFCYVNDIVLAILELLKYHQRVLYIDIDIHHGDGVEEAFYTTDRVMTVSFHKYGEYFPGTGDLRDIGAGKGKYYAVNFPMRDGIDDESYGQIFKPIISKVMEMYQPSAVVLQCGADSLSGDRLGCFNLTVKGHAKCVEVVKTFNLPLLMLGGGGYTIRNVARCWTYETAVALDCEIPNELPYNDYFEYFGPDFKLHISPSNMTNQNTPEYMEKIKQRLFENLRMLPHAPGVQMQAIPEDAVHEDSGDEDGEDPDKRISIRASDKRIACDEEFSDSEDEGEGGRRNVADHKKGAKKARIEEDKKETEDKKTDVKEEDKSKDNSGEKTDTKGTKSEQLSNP
Assay: Measurement of HDAC2 enzyme inhibitory activity (HTRF)
Assay type: biochemical
Details: recombinant HDAC2, H3K9ac peptide, 3 hours room temperature; read-out: HDAC2 IC50
Readout name: IC50 (µM)

Compound | IC50 [µM]
N#Cc1ccc(C(=O)Nc2cc(-c3cncs3)ccc2N)nc1 | 0.16
COc1cnc(C(=O)Nc2cc(-c3cnn(C)c3)ccc2N)nc1 | 0.87
Cn1cc(-c2ccc(N)c(NC(=O)c3ccc4c(n3)OCO4)c2)cn1 | 0.1
Cn1cccc1-c1cc(C(=O)Nc2cc(-c3cncs3)ccc2N)no1 | 0.2
Nc1ccc(-c2ccc(F)nc2)cc1NC(=O)c1cnc(N2CCCC2)cn1 | 0.08
Nc1ccc(-c2ccc(F)nc2)cc1NC(=O)c1cnc(N2CC(O)C2)cn1 | 0.05
Nc1ccc(-n2ccc(F)c2)cc1NC(=O)c1cnc(NCc2ccccn2)cn1 | 0.08
Nc1ccc(-c2ccc(F)nc2)cc1NC(=O)c1ccc2c(n1)OCC(=O)N2 | 0.049
Nc1ccc(-c2cncs2)cc1NC(=O)c1ccc2nccn2n1 | 0.33
COCc1cnc(C(=O)Nc2cc(-c3ccc(F)nc3)ccc2N)cn1 | 0.15

A: Nc1ccc(-c2ccc(F)nc2)cc1NC(=O)c1cc(F)ccn1
B: CC(C)c1ccc(C(=O)Nc2cc(-c3ccc(F)nc3)ccc2N)nc1
C: CCc1cnc(C(=O)Nc2cc(-c3ccc(F)nc3)ccc2N)cn1
D: CN(C)c1ccc(C(=O)Nc2cc(-c3cnn(C)c3)ccc2N)nn1
*Q* Put the items in order so that reported IC50 rises from first to last. A complete answer lists every label in the requested sequence.
*A* C, B, D, A
(C: 0.07 µM, B: 0.14 µM, D: 0.24 µM, A: 0.49 µM)

###

Target: HDAC2 Human recombinant C-terminal FLAG-tag (Homo sapiens)
Construct: FLAG (C); purchased BPS Bioscience 50052
Assay: Measurement of HDAC2 enzyme inhibitory activity (HTRF)
Assay type: biochemical
Conditions: recombinant HDAC2, H3K9ac peptide, 3 hours room temperature; read-out: HDAC2 IC50
Procedure: Test Example 1: Measurement of HDAC2 Enzyme Inhibitory Activity The HDAC2 enzyme inhibitory activity was measured by the method described in the following test example. To each well of a 384-well plate (Corning, 4514), DMSO solution of the test compound was dispensed at 50 nL/well from a final concentration of 99 μM to 8 points (n=2) in the 3-fold dilution series using Echo555 (Beckman Coulter). […]
Readout name: IC50 (nM)

Sample answers from the record:
Molecule | Tested on | Uom | Experimental value
Cc1ccc(C(=O)Nc2cc(-c3cnn(C)c3)ccc2N)nc1 [Compound I-155] | HDAC2 Human recombinant C-terminal FLAG-tag (Homo sapiens) | nM | 220
Nc1ccc(-c2ccc(F)nc2)cc1NC(=O)c1cnc(C(F)F)cn1 [Compound I-145] | HDAC2 Human recombinant C-terminal FLAG-tag (Homo sapiens) | nM | 340
CC(C)Oc1ccc(C(=O)Nc2cc(-c3cnn(C)c3)ccc2N)nn1 [Compound I-293] | HDAC2 Human recombinant C-terminal FLAG-tag (Homo sapiens) | nM | 340

A: CCCCc1ccc(C(=O)Nc2cc(-c3cncs3)ccc2N)nc1 [Compound I-057]
B: COC(=O)c1ccc(C(=O)Nc2cc(-c3ccc(F)nc3)ccc2N)nc1 [Compound I-185]
C: Nc1ccc(-c2ccc(F)nc2)cc1NC(=O)c1cnc(C2CC2)cn1 [Compound I-129]
D: Nc1ccc(-c2ccc(F)nc2)cc1NC(=O)c1ccc(OCC(F)(F)F)cn1 [Compound I-135]
*Q* Falling order of IC50, please. Return the labels ranked in the requested order, please.
*A* D, A, B, C
(D: 470 nM, A: 320 nM, B: 140 nM, C: 94 nM)

a: Nc1ccc(-c2cncs2)cc1NC(=O)c1cc2ccccc2cn1 [Compound I-066]
b: Nc1ccc(-c2ccc(F)nc2)cc1NC(=O)c1cc2c(cn1)OCCO2 [Compound I-097]
*Q* Param pair: a , b . Output: the one whose IC50 is numerically greater. Output the label that corresponds to your choice.
*A* b
(b: 160 nM, a: 110 nM)

I: Cn1cc(-c2ccc(N)c(NC(=O)c3cnc(CF)cn3)c2)cn1 [Compound I-147]
II: CN(C)c1cnc(C(=O)Nc2cc(-n3ccc(F)c3)ccc2N)cn1 [Compound I-299]
*Q* Kindly compare I with II and tell me which has the lower IC50 figure. Answer = label.
*A* II

###

Molecular target: HDAC2 Human recombinant C-terminal FLAG-tag (Homo sapiens)
Construct: FLAG (C); purchased BPS Bioscience 50052
Assay: Measurement of HDAC2 enzyme inhibitory activity (HTRF)
Type: biochemical
Settings: recombinant HDAC2, H3K9ac peptide, 3 hours room temperature; read-out: HDAC2 IC50
pIC50: −log10 of the molar value.
Readout name: pIC50

Worked set:
Compound | Readout name | Experimental value
Cn1cc(-c2ccc(N)c(NC(=O)c3ccc(C4CC4)cn3)c2)cn1 [Compound I-112] | pIC50 | 6.70
C#Cc1ccc(C(=O)Nc2cc(-c3ccc(F)nc3)ccc2N)nc1 [Compound I-096] | pIC50 | 6.57
CCOCCOc1cnc(C(=O)Nc2cc(-c3ccc(F)nc3)ccc2N)cn1 [Compound I-126] | pIC50 | 6.85
Cc1ccc(C(=O)Nc2cc(-c3ccc(F)nc3)ccc2N)nc1F [Compound I-210] | pIC50 | 6.72
Cn1cc(-c2cnc(C(=O)Nc3nc(-c4cccs4)ccc3N)cn2)cn1 [Compound I-017] | pIC50 | 6.66

I: Cn1cc(-c2ccc(N)c(NC(=O)c3cnc(-c4cnn(C)c4)cn3)c2)cn1 [Compound I-036]
II: CC(C)(O)C1CN(c2cnc(C(=O)Nc3cc(-c4ccc(F)nc4)ccc3N)cn2)C1 [Compound I-284]
*Q* I or II : whose pIC50 is greater? In your reply, give the label of the chosen option.
*A* II

###

Target: HDAC2 Human recombinant C-terminal FLAG-tag (Homo sapiens, UniProt Q92769)
Construct: FLAG (C); purchased BPS Bioscience 50052
Assay: Measurement of HDAC2 enzyme inhibitory activity (HTRF)
Type: biochemical
Settings: recombinant HDAC2, H3K9ac peptide, 3 hours room temperature; read-out: HDAC2 IC50
Readout name: IC50 (nM)

Answered cases to consult:
Compound | IC50 [nM]
Cc1ccc(C(=O)Nc2cc(-c3ccc(F)nc3)ccc2N)nn1 [Compound I-256] | 260
Cn1cc(-c2ccc(N)c(NC(=O)c3ccc(N4CCCC4)nn3)c2)cn1 [Compound I-272] | 230
Nc1ccc(-c2ccc(F)nc2)cc1NC(=O)c1cnc(OC2CCOCC2)cn1 [Compound I-287] | 170
Nc1ccc(-c2ccc(F)nc2)cc1NC(=O)c1cnc(OC(F)F)cn1 [Compound I-132] | 430
COCc1cnc(C(=O)Nc2cc(-c3cnn(C)c3)ccc2N)cn1 [Compound I-219] | 310
Cn1cc(-c2cnc(C(=O)Nc3cc(-c4cnco4)ccc3N)cn2)nn1 [Compound I-012] | 94

1: Cn1cc(-c2ccc(C(=O)Nc3cc(-c4cccs4)ccc3N)nc2)cn1 [Compound I-003]
2: Cn1cc(-c2ccc(C(=O)Nc3cc(-c4cnco4)ccc3N)nc2)nn1 [Compound I-011]
*Q* Which has the smaller recorded IC50, 1 or 2 ? Bench note: the answer is the label of the chosen record.
*A* 2
(2: 57 nM, 1: 310 nM)
